- system: human α1β2γ2 GABAA receptor (Homo sapiens, UniProt P14867+P18507+P47870, DEL377-384, form not given)
- Type: cell-based
- recorded_conditions: read-out: Carisoprodol direct gating EC50, relative to maximum current elicited by carisoprodol
readout: EC50 (µM)
Quick note: give the figure in µM, leave out the unit.

Data request: // EC50 lookup, key: CCCC(C)(COC(N)=O)COC(=O)NC(C)C (stereo not shown) [carisoprodol, Carisoprodol]
Data returned: 686

* * *

- system: human α1β2γ2 GABAA receptor (Homo sapiens, UniProt P14867+P18507+P47870, DEL377-384, form not given)
- Format: cell-based
- recorded_conditions: read-out: EC50 for allosteric modulation by carisoprodol, in the presence of GABA (EC20)
readout: EC50 (µM)
Quick note: give the figure in µM, leave out the unit.

Data request: // EC50 lookup, key: CCCC(C)(COC(N)=O)COC(=O)NC(C)C (stereo not shown)
Data returned: 88.2

* * *

- system: rat α1β2 GABAA receptor (Rattus norvegicus, UniProt P62813+P63138)
- Sequence (P62813 28-455): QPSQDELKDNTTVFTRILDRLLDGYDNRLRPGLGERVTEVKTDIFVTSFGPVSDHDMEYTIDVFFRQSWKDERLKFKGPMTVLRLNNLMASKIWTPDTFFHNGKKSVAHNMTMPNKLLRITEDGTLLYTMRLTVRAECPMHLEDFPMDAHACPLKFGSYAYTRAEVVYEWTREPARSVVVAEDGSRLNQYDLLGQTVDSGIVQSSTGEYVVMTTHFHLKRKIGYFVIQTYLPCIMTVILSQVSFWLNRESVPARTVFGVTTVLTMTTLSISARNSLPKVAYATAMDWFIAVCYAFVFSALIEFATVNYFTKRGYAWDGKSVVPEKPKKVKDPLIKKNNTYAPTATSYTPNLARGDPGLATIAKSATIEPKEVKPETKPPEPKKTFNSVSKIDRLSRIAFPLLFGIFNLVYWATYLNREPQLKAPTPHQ
- Sequence (P63138 25-474 limits assumed): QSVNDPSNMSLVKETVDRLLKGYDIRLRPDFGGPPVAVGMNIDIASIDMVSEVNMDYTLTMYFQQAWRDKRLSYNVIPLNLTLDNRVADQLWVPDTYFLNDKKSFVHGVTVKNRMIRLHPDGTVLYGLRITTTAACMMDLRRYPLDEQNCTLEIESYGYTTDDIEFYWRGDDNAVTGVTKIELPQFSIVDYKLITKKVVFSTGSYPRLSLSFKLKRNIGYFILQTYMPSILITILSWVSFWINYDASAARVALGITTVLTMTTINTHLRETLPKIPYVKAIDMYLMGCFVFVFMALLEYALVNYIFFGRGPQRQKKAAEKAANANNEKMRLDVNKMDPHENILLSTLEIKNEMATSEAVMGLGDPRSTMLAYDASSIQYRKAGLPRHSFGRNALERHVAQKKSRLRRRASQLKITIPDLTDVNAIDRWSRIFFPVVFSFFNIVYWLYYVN
- assay_remarks: Whole-cell patch clamp, HEK293 cells expressing rat α1β2 GABAARs
- Format: cell-based
- recorded_conditions: CSP modulation EC50, rat α1β2; in the presence of GABA (EC20)
readout: EC50 (µM)
Quick note: give the figure in µM, leave out the unit.

Data request: // EC50 lookup, key: CCCC(C)(COC(N)=O)COC(=O)NC(C)C (stereo not shown)
Data returned: 120

* * *

- system: human α1β1γ2 GABAA receptor (Homo sapiens, UniProt P14867+P18505+P18507, DEL377-384, form not given)
- assay_remarks: Whole-cell patch clamp, HEK293 cells expressing α1β1γ2 GABAARs
- Type: cell-based
- recorded_conditions: read-out: Carisoprodol direct gating EC50, relative to maximum current elicited by carisoprodol
readout: pEC50
Give only the number. pEC50 is defined as minus log10 of concentration in molar units.

Data request: // pEC50 lookup, key: CCCC(C)(COC(N)=O)COC(=O)NC(C)C (stereo not shown) [carisoprodol, Carisoprodol]
Data returned: 3.14

* * *

- system: rat α1β3δ GABAA receptor (Rattus norvegicus, UniProt P18506+P62813+P63079)
- Sequence (P63079 26-473, one chain of several): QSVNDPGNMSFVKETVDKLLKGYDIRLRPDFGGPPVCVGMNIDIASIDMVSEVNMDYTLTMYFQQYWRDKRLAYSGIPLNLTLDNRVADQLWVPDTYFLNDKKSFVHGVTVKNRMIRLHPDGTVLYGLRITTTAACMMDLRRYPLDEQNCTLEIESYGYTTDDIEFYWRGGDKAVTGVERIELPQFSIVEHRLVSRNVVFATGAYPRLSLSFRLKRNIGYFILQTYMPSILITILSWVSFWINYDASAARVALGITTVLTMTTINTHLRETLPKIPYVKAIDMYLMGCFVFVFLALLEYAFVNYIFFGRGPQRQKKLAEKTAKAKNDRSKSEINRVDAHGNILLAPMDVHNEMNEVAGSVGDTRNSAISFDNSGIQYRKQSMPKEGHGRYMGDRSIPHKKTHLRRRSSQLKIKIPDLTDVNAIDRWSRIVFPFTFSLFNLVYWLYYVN
- Sequence (P18506 17-449 limits assumed, one chain of several): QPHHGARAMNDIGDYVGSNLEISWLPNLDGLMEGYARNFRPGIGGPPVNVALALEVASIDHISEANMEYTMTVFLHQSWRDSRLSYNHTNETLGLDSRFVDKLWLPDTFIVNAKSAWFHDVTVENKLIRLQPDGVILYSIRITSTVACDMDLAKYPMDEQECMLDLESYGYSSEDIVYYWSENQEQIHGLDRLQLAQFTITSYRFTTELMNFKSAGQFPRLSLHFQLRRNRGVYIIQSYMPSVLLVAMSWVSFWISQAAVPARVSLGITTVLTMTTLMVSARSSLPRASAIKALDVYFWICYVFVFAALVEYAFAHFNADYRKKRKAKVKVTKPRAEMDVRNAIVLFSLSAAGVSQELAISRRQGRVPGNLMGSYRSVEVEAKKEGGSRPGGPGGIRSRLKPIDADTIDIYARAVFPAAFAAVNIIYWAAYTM
- assay_remarks: cell-based
- recorded_conditions: CSP gating EC50, rat α1β3δ; relative to maximum current elicited by carisoprodol
readout: pEC50
Give only the number. pEC50 is defined as minus log10 of concentration in molar units.

Data request: // pEC50 lookup, key: CCCC(C)(COC(N)=O)COC(=O)NC(C)C (stereo not shown) [carisoprodol, Carisoprodol]
Data returned: 3.10

* * *

- system: human α5β2γ2 GABAA receptor (Homo sapiens, UniProt P18507+P31644+P47870, DEL377-384, form not given)
- assay_remarks: Whole-cell patch clamp, HEK293 cells expressing α5β2γ2 GABAARs
- Assay type: cell-based
- recorded_conditions: read-out: Carisoprodol direct gating EC50, relative to maximum current elicited by carisoprodol
readout: EC50
The number alone won't do; follow it with the unit.

Data request: // EC50 lookup, key: CCCC(C)(COC(N)=O)COC(=O)NC(C)C (stereo not shown) [carisoprodol, Carisoprodol]
Data returned: 835 µM

* * *

- system: human α6β2γ2 GABAA receptor (Homo sapiens, UniProt P18507+P47870+Q16445, DEL377-384, form not given)
- assay_remarks: Whole-cell patch clamp, HEK293 cells expressing α6β2γ2 GABAARs
- Type: cell-based
- recorded_conditions: read-out: Carisoprodol direct gating EC50, relative to maximum current elicited by carisoprodol
readout: EC50 (µM)
Quick note: give the figure in µM, leave out the unit.

Data request: // EC50 lookup, key: CCCC(C)(COC(N)=O)COC(=O)NC(C)C (stereo not shown) [carisoprodol, Carisoprodol]
Data returned: 294

* * *

- system: rat α1β3γ2 GABAA receptor (Rattus norvegicus, UniProt P18508+P62813+P63079)
- assay_remarks: Whole-cell patch clamp, HEK293 cells expressing rat α1β3γ2 GABAARs
- recorded_conditions: CSP modulation EC50, rat α1β3γ2; in the presence of GABA (EC20)
readout: EC50 (µM)
Quick note: give the figure in µM, leave out the unit.

Data request: Give recorded EC50 with rat α1β3γ2 GABAA receptor (Rattus norvegicus, UniProt P18508+P62813+P63079) for the following compound: CCCC(C)(COC(N)=O)COC(=O)NC(C)C (stereo not shown) [carisoprodol, Carisoprodol]
Data returned: 131

* * *

- system: rat α1β3 GABAA receptor (Rattus norvegicus, UniProt P62813+P63079)
- Sequence (P63079 26-473, one chain of several): as the sequence (P63079 26-473, one chain of several) above
- assay_remarks: cell-based
- recorded_conditions: CSP gating EC50, rat α1β3; relative to maximum current elicited by carisoprodol
readout: EC50 (µM)
Quick note: give the figure in µM, leave out the unit.

Data request: // EC50 lookup, key: CCCC(C)(COC(N)=O)COC(=O)NC(C)C (stereo not shown)
Data returned: 606

* * *

- system: human α3β2γ2 GABAA receptor (Homo sapiens, UniProt P18507+P34903+P47870, DEL377-384, form not given)
- assay_remarks: Whole-cell patch clamp, HEK293 cells expressing α3β2γ2 GABAARs
- Assay type: cell-based
- recorded_conditions: read-out: Carisoprodol direct gating EC50, relative to maximum current elicited by carisoprodol
readout: pEC50
Give only the number. pEC50 is defined as minus log10 of concentration in molar units.

Data request: // pEC50 lookup, key: CCCC(C)(COC(N)=O)COC(=O)NC(C)C (stereo not shown) [carisoprodol, Carisoprodol]
Data returned: 2.73

* * *

- system: rat α1β3 GABAA receptor (Rattus norvegicus, UniProt P62813+P63079)
- assay_remarks: cell-based
- recorded_conditions: CSP modulation EC50, rat α1β3; in the presence of GABA (EC20)
readout: EC50 (µM)
Quick note: give the figure in µM, leave out the unit.

Data request: // EC50 lookup, key: CCCC(C)(COC(N)=O)COC(=O)NC(C)C (stereo not shown)
Data returned: 135

* * *

- system: human α1β2 GABAA receptor (Homo sapiens, UniProt P14867+P47870)
- Sequence (P14867 28-456): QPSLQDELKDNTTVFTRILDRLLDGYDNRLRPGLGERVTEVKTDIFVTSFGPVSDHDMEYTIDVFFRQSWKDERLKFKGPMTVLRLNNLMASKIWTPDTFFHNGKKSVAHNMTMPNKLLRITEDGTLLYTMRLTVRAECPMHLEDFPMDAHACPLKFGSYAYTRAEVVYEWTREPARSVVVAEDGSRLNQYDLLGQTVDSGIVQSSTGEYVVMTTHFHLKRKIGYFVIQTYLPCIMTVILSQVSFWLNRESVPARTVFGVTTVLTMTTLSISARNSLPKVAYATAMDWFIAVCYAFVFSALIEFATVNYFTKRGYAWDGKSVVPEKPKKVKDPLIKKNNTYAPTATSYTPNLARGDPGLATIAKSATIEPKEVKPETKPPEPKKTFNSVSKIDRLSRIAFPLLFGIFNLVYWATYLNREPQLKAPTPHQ
- Sequence (P47870 25-512 limits assumed): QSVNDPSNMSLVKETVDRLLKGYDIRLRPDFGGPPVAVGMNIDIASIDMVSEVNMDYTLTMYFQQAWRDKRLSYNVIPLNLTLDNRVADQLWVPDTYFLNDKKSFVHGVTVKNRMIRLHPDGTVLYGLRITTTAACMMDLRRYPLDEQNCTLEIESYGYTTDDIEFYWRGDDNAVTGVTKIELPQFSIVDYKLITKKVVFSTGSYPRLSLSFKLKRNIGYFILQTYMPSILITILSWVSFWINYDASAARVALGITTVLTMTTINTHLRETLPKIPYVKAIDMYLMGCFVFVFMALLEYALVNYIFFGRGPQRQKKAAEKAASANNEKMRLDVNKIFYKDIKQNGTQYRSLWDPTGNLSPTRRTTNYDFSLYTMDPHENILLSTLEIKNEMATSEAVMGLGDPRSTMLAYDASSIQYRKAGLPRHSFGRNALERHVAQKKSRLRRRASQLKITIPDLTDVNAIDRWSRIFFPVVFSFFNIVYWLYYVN
- Assay type: cell-based
- recorded_conditions: EC50 for allosteric modulation by carisoprodol, α1β2; in the presence of GABA (EC20)
readout: EC50 (µM)
Quick note: give the figure in µM, leave out the unit.

Data request: // EC50 lookup, key: CCCC(C)(COC(N)=O)COC(=O)NC(C)C (stereo not shown) [carisoprodol, Carisoprodol]
Data returned: 87.4

* * *

- system: human α3β2γ2 GABAA receptor (Homo sapiens, UniProt P18507+P34903+P47870, DEL377-384, form not given)
- assay_remarks: Whole-cell patch clamp, HEK293 cells expressing α3β2γ2 GABAARs
- Format: cell-based
- recorded_conditions: read-out: EC50 for allosteric modulation by carisoprodol, in the presence of GABA (EC20)
readout: EC50

Data request: // EC50 lookup, key: CCCC(C)(COC(N)=O)COC(=O)NC(C)C (stereo not shown) [carisoprodol, Carisoprodol]
Data returned: 63.7 µM
